The compounds listed here are annotated with their pIC50.
- study_system: Acetylcholinesterase (Electrophorus electricus)
- Sequence (O42275 whole entry): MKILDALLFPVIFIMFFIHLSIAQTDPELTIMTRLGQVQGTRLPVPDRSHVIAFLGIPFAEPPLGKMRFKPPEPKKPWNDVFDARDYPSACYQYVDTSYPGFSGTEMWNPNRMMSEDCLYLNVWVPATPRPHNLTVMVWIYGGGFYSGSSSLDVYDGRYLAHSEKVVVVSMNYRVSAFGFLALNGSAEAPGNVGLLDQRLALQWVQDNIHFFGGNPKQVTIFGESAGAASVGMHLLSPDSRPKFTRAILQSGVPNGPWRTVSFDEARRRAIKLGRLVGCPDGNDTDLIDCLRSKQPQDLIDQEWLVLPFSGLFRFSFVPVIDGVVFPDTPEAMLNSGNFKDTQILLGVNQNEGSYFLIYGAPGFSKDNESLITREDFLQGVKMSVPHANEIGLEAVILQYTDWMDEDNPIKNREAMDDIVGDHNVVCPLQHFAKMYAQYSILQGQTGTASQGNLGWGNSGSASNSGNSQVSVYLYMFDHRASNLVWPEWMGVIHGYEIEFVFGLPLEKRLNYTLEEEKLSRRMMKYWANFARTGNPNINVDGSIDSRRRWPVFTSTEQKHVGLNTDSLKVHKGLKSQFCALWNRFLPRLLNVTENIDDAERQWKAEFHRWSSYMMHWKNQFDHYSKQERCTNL
pIC50: −log10 of the molar value.

# compound, study_system, sign_qualifier, pIC50
data = [
    ("CCCc1n[nH]c2c1C(c1ccc([N+](=O)[O-])cc1)c1c(nc3c(c1N)CCCC3)O2 (centres undefined)", "Acetylcholinesterase (Electrophorus electricus)", "=", 6.13),
    ("CCCc1n[nH]c2c1C(c1ccc(C)cc1)c1c(nc3c(c1N)CSCC3)O2 (centres undefined)", "Acetylcholinesterase (Electrophorus electricus)", "=", 5.99),
    ("CCCc1n[nH]c2c1C(c1ccccc1OC)c1c(nc3c(c1N)CCCC3)O2 (centres undefined)", "Acetylcholinesterase (Electrophorus electricus)", "=", 6.33),
    ("Nc1c2c(nc3c1C(c1ccccc1)c1c(-c4ccco4)nn(-c4ccccc4)c1O3)CCCC2 (centres undefined)", "Acetylcholinesterase (Electrophorus electricus)", "=", 7.14),
    ("CCCc1n[nH]c2c1C(c1ccc(Cl)cc1)c1c(nc3c(c1N)CCCCC3)O2 (centres undefined)", "Acetylcholinesterase (Electrophorus electricus)", "=", 5.97),
    ("Nc1c2c(nc3c1C(c1ccc(Cl)cc1)c1c(-c4ccccc4)n[nH]c1O3)CCSC2 (centres undefined)", "Acetylcholinesterase (Electrophorus electricus)", "=", 6.35),
    ("CCCc1n[nH]c2c1C(c1ccc(OC)cc1)c1c(nc3c(c1N)CCCC3)O2 (centres undefined)", "Acetylcholinesterase (Electrophorus electricus)", "=", 7.28),
    ("Cc1ccc(C2c3c(-c4ccccc4)n[nH]c3Oc3cc4c(c(N)c32)CCCC4)cc1 (centres undefined)", "Acetylcholinesterase (Electrophorus electricus)", "=", 7.01),
    ("CCCc1n[nH]c2c1C(c1ccc(C#N)cc1)c1c(nc3c(c1N)CCCC3)O2 (centres undefined)", "Acetylcholinesterase (Electrophorus electricus)", "=", 6.02),
    ("CCCc1n[nH]c2c1C(c1cccc([N+](=O)[O-])c1)c1c(nc3c(c1N)CCCC3)O2 (centres undefined)", "Acetylcholinesterase (Electrophorus electricus)", "=", 6.37),
    ("CCCc1n[nH]c2c1C(c1ccc(N(C)C)cc1)c1c(nc3c(c1N)CCCC3)O2 (centres undefined)", "Acetylcholinesterase (Electrophorus electricus)", "=", 6.46),
    ("CCCc1n[nH]c2c1C(c1cccc(Br)c1)c1c(nc3c(c1N)CCCC3)O2 (centres undefined)", "Acetylcholinesterase (Electrophorus electricus)", "=", 6.33),
    ("CCCc1n[nH]c2c1C(c1ccc(Cl)cc1)c1c(nc3c(c1N)CSCC3)O2 (centres undefined)", "Acetylcholinesterase (Electrophorus electricus)", "=", 6.52),
    ("CCCc1n[nH]c2c1C(c1ccc(Cl)cc1)c1c(nc3c(c1N)CCCC3)O2 (centres undefined)", "Acetylcholinesterase (Electrophorus electricus)", "=", 6.70),
    ("Nc1c2c(nc3c1C(c1ccccc1)c1c(-c4ccco4)n[nH]c1O3)CCCC2 (centres undefined)", "Acetylcholinesterase (Electrophorus electricus)", "=", 7.00),
    ("Nc1c2c(nc3c1C(c1ccccc1)c1c(-c4ccccc4)n[nH]c1O3)CCCCC2 (centres undefined)", "Acetylcholinesterase (Electrophorus electricus)", "=", 7.27),
    ("Nc1c2c(cc3c1C(c1ccccc1)c1c(-c4ccccc4)n[nH]c1O3)CCCC2 (centres undefined)", "Acetylcholinesterase (Electrophorus electricus)", "=", 6.85),
    ("Nc1c2c(nc3c1C(c1ccccc1)c1c(-c4ccccc4)nn(-c4ccccc4)c1O3)CCCC2 (centres undefined)", "Acetylcholinesterase (Electrophorus electricus)", "<", 3.70),
    ("CC(C)C1c2c(-c3ccccc3)n[nH]c2Oc2nc3c(c(N)c21)CCCC3 (centres undefined)", "Acetylcholinesterase (Electrophorus electricus)", "=", 4.82),
    ("Nc1c2c(cc3c1C(c1ccc(Cl)cc1)c1c(-c4ccccc4)n[nH]c1O3)CCCC2 (centres undefined)", "Acetylcholinesterase (Electrophorus electricus)", "=", 6.59),
    ("Nc1c2c(cc3c1C(c1ccc(F)cc1)c1c(-c4ccccc4)n[nH]c1O3)CCCC2 (centres undefined)", "Acetylcholinesterase (Electrophorus electricus)", "=", 7.47),
    ("CCCc1n[nH]c2c1C(c1ccc(SC)cc1)c1c(nc3c(c1N)CCCC3)O2 (centres undefined)", "Acetylcholinesterase (Electrophorus electricus)", "=", 6.70),
    ("CCCc1n[nH]c2c1C(c1ccc(OC)c(OC)c1)c1c(nc3c(c1N)CCCC3)O2 (centres undefined)", "Acetylcholinesterase (Electrophorus electricus)", "=", 5.83),
    ("CCCc1n[nH]c2c1C(c1cc(OC)c(OC)c(OC)c1)c1c(nc3c(c1N)CCCC3)O2 (centres undefined)", "Acetylcholinesterase (Electrophorus electricus)", "=", 6.05),
    ("Nc1c2c(nc3c1C(c1ccc(Cl)cc1)c1c(-c4ccccc4)n[nH]c1O3)CCCCC2 (centres undefined)", "Acetylcholinesterase (Electrophorus electricus)", "=", 5.72),
    ("COc1ccc(C2c3c(-c4ccccc4)n[nH]c3Oc3cc4c(c(N)c32)CCCC4)cc1 (centres undefined)", "Acetylcholinesterase (Electrophorus electricus)", "=", 7.09),
    ("COc1cc(C2c3c(-c4ccccc4)n[nH]c3Oc3nc4c(c(N)c32)CCCC4)cc(OC)c1OC (centres undefined)", "Acetylcholinesterase (Electrophorus electricus)", "=", 5.99),
    ("CCCc1n[nH]c2c1C(c1ccc(C)cc1)c1c(nc3c(c1N)CCCC3)O2 (centres undefined)", "Acetylcholinesterase (Electrophorus electricus)", "=", 6.92),
    ("CCCc1n[nH]c2c1C(c1ccccc1)c1c(nc3c(c1N)CCCCC3)O2 (centres undefined)", "Acetylcholinesterase (Electrophorus electricus)", "=", 6.19),
]

From: ChEMBL document CHEMBL3870313
